assay: Volume of distribution at steady state in dog at 1 mg, iv administered as single dose measured after 0.083 to 24 hrs by LC-MS analysis; format: ADME, organism-based, Canis lupus familiaris; conditions: in vivo, read-out: Vdss
recorded endpoint: Vd (L/kg)
Give bare numbers, in L/kg.

Report Vd for COc1cc2c(c(OC)n1)[C@]1(O)[C@H](O)[C@H](CN(C)C)[C@@H](c3ccccc3)[C@]1(c1ccc(C#N)cc1)O2 17.8

###

target: UniProt:P60842; experiment: Inhibition of eIF4A1 in human MDA-MB-231 cells assessed as inhibition of cellular-translation incubated for 4 hrs by specific tandem sequence motif repeat GGCGGC in 5'- UTR containing luciferase reporter gene assay; format: cell-based
Sequence (P60842 whole entry): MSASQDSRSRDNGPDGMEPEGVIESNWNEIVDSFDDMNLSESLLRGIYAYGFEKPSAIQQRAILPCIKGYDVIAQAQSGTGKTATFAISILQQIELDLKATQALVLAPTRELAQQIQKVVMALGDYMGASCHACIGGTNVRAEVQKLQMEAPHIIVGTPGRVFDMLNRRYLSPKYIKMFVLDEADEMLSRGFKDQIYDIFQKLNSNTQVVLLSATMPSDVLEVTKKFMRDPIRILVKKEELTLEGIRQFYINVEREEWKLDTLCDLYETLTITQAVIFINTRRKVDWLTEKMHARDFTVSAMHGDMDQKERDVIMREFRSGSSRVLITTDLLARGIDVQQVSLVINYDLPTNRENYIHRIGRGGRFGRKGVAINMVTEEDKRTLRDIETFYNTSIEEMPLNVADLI
Please provide measured pIC50 for the entries that follow.
Give bare numbers, as −log10 of the molar value.

For orientation, consider the following solved cases.
>  <compound>
C[C@H]1C[C@@]2(O[C@H]3C[C@H]4[C@@H]5CC[C@H]6C[C@H](O)CC[C@]6(C)[C@H]5[C@@H](O)C[C@]4(C)[C@H]3[C@@]2(C)O)OC1(C)C

>  <study target>
UniProt:P60842

>  <observed result>
6.43

$$$$
>  <compound>
COc1cc2c(c(OC)n1)[C@]1(O)[C@H](O)[C@H](CN(C)C)[C@@H](c3ccccc3)[C@]1(c1ccc(C#N)cc1)O2

>  <study target>
UniProt:P60842

>  <observed result>
7.86

$$$$

As a next step, examine the compound that follows.
Give the observed pIC50 of C[C@@H]1C[C@@H]([C@H](O)CC2CC(=O)NC(=O)C2)C(=O)[C@@H](C)C1 [CYCLOHEXIMIDE] for UniProt:P60842. 7.00

###

test: Volume of distribution at steady state in Sprague-Dawley rat at 1 mg, iv administered as single dose measured after 0.083 to 24 hrs by LC-MS analysis; type: ADME, organism-based; conditions: in vivo, read-out: Vdss
recorded endpoint: Vd (L/kg)
One number for each entry, in L/kg.

Report Vd for COc1cc2c(c(OC)n1)[C@]1(O)[C@H](O)[C@H](CN(C)C)[C@@H](c3ccccc3)[C@]1(c1ccc(C#N)cc1)O2 [ZOTATIFIN] 13

###

Please provide measured clearance for the entries that follow.
assay: Clearance in iv dosed rat; assay type: ADME, organism-based; conditions: in vivo
One number for each entry, in mL/min/kg.

Go through the list and state clearance for each entry.
1. COc1cc2c(c(OC)n1)[C@]1(O)[C@H](O)[C@H](CN(C)C)[C@@H](c3ccccc3)[C@]1(c1ccc(C#N)cc1)O2 [ZOTATIFIN]
2. COc1cncc2c1[C@]1(O)[C@H](O)[C@H](C(=O)N(C)C)[C@@H](c3ccccc3)[C@]1(c1ccc(C#N)cc1)O2
3. COc1cncc2c1[C@]1(O)[C@H](O)[C@H](CN(C)C)[C@@H](c3ccccc3)[C@]1(c1ccc(C#N)cc1)O2 (stereo in doubt; (-)-37)
4. COc1nc(C#N)cc2c1[C@]1(O)[C@H](O)[C@H](CN(C)C)[C@@H](c3ccccc3)[C@]1(c1ccc(C#N)cc1)O2

1: 48; 2: 18; 3: 39; 4: 26

###

Please provide measured remaining at 0.5 h, 1 µM for the entries that follow.
experiment: Stability in human liver microsomes assessed as parent compound remaining at 1 uM pre-incubated for 10 mins before NADPH addition and measured after 30 mins by LC/MS/MS analysis; type: ADME, Microsome; settings: read-out: Stability
Report field: quantity (unit follows the number).

For orientation, consider the following solved cases.
>  <compound>
COc1cncc2c1[C@]1(O)[C@H](O)[C@H](CN3CC4(COC4)C3)[C@@H](c3ccccc3)[C@]1(c1ccc(C#N)cc1)O2

>  <remaining at 0.5 h, 1 µM>
81%

$$$$
>  <compound>
COc1cncc2c1[C@]1(O)[C@H](O)[C@H](CN(C)C(C)(C)C)[C@@H](c3ccccc3)[C@]1(c1ccc(C#N)cc1)O2

>  <remaining at 0.5 h, 1 µM>
61%

$$$$
>  <compound>
COc1cncc2c1[C@]1(O)[C@H](O)[C@H](CN3[C@@H]4CCC[C@H]3CC4)[C@@H](c3ccccc3)[C@]1(c1ccc(C#N)cc1)O2

>  <remaining at 0.5 h, 1 µM>
62%

$$$$
>  <compound>
COc1cncc2c1[C@]1(O)[C@H](O)[C@H](CN3CCOCC3)[C@@H](c3ccccc3)[C@]1(c1ccc(C#N)cc1)O2

>  <remaining at 0.5 h, 1 µM>
40%

$$$$
>  <compound>
COc1cncc2c1[C@]1(O)[C@H](O)[C@H](CN(C)CC(F)F)[C@@H](c3ccccc3)[C@]1(c1ccc(C#N)cc1)O2

>  <remaining at 0.5 h, 1 µM>
1%

$$$$

Go through the list and state remaining at 0.5 h, 1 µM for each entry.
1. COc1cncc2c1[C@]1(O)[C@H](O)[C@H](CNC(C)(C)C)[C@@H](c3ccccc3)[C@]1(c1ccc(C#N)cc1)O2
2. COc1cncc2c1[C@]1(O)[C@H](O)[C@H](CN(C)C)[C@@H](c3ccccc3)[C@]1(c1ccc(C#N)cc1)O2 (stereo in doubt; (+)-37)
3. CNC[C@H]1[C@@H](O)[C@@]2(O)c3c(OC)cncc3O[C@@]2(c2ccc(C#N)cc2)[C@@H]1c1ccccc1 (racemic)
4. COc1cncc2c1[C@]1(O)[C@H](O)[C@H](CN3CCC(F)(F)CC3)[C@@H](c3ccccc3)[C@]1(c1ccc(C#N)cc1)O2

["99%", "75%", "98%", "45%"]
